# Test Target: Prostaglandin G/H synthase 1 (Rattus norvegicus); note: assay procedure not described here
# Sequence (Q63921 whole entry): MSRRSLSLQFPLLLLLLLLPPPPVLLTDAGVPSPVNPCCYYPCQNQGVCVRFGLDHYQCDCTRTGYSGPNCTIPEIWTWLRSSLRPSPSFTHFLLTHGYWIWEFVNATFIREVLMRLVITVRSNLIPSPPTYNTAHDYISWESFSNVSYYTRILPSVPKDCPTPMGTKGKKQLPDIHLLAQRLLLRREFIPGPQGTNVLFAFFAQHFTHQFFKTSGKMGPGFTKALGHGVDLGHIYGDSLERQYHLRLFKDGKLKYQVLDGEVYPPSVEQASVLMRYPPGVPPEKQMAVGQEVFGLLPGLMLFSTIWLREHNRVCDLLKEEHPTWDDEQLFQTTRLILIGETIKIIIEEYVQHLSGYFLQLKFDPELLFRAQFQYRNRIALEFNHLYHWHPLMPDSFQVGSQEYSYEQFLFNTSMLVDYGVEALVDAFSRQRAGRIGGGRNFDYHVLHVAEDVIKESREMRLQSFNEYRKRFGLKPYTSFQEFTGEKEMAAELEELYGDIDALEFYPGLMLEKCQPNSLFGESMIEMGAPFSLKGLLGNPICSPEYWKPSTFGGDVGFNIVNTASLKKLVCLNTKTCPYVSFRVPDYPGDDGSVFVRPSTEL
# Type: functional
Quantity: AC50

In the examples that follow, each entry is paired with its recorded AC50.
- Molecule: "COc1cc(C(=O)OCc2cccc(COC(=O)c3cc(OC)c(OC)c(OC)c3)n2)cc(OC)c1OC"
  Result: "> 30 µM"
- Molecule: "O=C1c2cccc3c2[C@H](CCC3)CN1[C@@H]1CN2CCC1CC2"
  Result: "> 30 µM"

Report AC50 for every entry below.
1. CCN1CC(CCN2CCOCC2)C(c2ccccc2)(c2ccccc2)C1=O (stereo not drawn)
2. CNCCc1ccc(OC(=O)C(C)C)c(OC(=O)C(C)C)c1
3. CCC[C@@H]1C[C@@H](C(=O)N[C@@H]([C@H]2O[C@H](SC)[C@H](O)[C@@H](O)[C@H]2O)[C@@H](C)O)N(C)C1
4. CC(C)[C@H](N)C(=O)OCCOCn1cnc2c(=O)[nH]c(N)nc21
5. CC(=O)O[C@]1(C(C)=O)CC[C@H]2[C@@H]3C=C(Cl)C4=CC(=O)[C@@H]5C[C@@H]5[C@]4(C)[C@H]3CC[C@@]21C [CYPROTERONE ACETATE]
6. NS(=O)(=O)c1cc2c(cc1Cl)N=C(CSCc1ccccc1)NS2(=O)=O [BENZTHIAZIDE]
7. O=c1[nH]c2ccccc2n1CCCN1CCN(C(c2ccccc2)c2ccccc2)CC1 [OXATOMIDE]
8. CCOC(=O)c1ncn2c1CN(C)C(=O)c1cc(F)ccc1-2

> 30 µM
> 30 µM
> 10 µM
> 30 µM
> 30 µM
> 10 µM
> 30 µM
> 30 µM

Report AC50 for every entry below.
1. CCOC(=O)C(C)(C)Oc1ccc(Cl)cc1 [CLOFIBRATE]
2. COc1cc2[nH]c(C)c(CCN3CCN(c4ccccc4)CC3)c2cc1OC
3. O=C(O)c1ccc(NC(=O)[C@H](Cc2ccc(O)cc2)NC(=O)c2ccccc2)cc1 [BENTIROMIDE]
4. Fc1ccc([C@@H]2CCNC[C@H]2COc2ccc3c(c2)OCO3)cc1
5. NNC(=O)c1ccncc1

1. > 30 µM
2. > 30 µM
3. > 10 µM
4. > 30 µM
5. > 30 µM

Report AC50 for every entry below.
1. O=C(CCCN1CCC(O)(c2ccc(Br)cc2)CC1)c1ccc(F)cc1
2. COc1cc(N)c(Cl)cc1C(=O)NC1CCN(CCCOc2ccc(F)cc2)CC1OC (stereo not drawn) [CISAPRIDE]
3. Cc1ccc(C)c(OCCCC(C)(C)C(=O)O)c1

1. > 30 µM
2. > 30 µM
3. > 30 µM

###

# Test Target: Alpha-1A adrenergic receptor (Homo sapiens); note: assay procedure not described here
# Sequence (P35348 whole entry): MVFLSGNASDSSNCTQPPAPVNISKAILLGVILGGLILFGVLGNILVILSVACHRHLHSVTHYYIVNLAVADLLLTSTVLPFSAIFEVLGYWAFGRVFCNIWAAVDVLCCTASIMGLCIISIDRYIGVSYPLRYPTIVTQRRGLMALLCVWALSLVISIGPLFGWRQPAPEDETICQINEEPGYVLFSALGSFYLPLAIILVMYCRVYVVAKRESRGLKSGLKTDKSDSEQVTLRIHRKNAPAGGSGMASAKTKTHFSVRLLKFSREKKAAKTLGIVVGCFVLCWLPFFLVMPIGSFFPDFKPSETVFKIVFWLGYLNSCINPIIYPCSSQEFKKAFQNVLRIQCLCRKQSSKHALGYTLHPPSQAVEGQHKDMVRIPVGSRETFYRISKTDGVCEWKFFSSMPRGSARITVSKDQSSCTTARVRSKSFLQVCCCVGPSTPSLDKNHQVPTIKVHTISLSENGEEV
# Format: functional, cell-based
What AC50 was measured for each of the following?

- Molecule: "O=c1[nH]c2ccccc2n1CCCN1CCN(C(c2ccccc2)c2ccccc2)CC1 [OXATOMIDE]"
  AC50: "> 30 µM"
- Molecule: "Cn1c(=O)c2c(ncn2CCOC(=O)C(C)(C)Oc2ccc(Cl)cc2)n(C)c1=O [THEOFIBRATE]"
  AC50: "> 30 µM"
- Molecule: "COc1cc2[nH]c(C)c(CCN3CCN(c4ccccc4)CC3)c2cc1OC [OXYPERTINE]"
  AC50: "> 30 µM"
- Molecule: "CC=CC1=C(C(=O)O)N2C(=O)[C@@H](NC(=O)[C@H](N)c3ccc(O)cc3)[C@H]2SC1 [CEFPROZIL]"
  AC50: "> 30 µM"
- Molecule: "CCOC(=O)C(C)(C)Oc1ccc(Cl)cc1 [CLOFIBRATE]"
  AC50: "> 30 µM"

Report AC50 for every entry below.
1. C=CCN1CCc2nc(N)sc2CC1 [TALIPEXOLE]
2. C[N+](C)(C)CCOP(=O)(O)OP(=O)([O-])OC[C@H]1O[C@@H](n2ccc(N)nc2=O)[C@H](O)[C@@H]1O [CITICOLINE]
3. Cc1nnc(SCC2=C(C(=O)O)N3C(=O)[C@@H](NC(=O)Cn4cnnn4)[C@H]3SC2)s1 [CEFAZOLIN]

["2.5 µM", "> 30 µM", "> 300 µM"]

###

A short record of AC50 observed with Histamine H3 receptor (Homo sapiens, UniProt Q9Y5N1) follows.
Sequence (Q9Y5N1 whole entry): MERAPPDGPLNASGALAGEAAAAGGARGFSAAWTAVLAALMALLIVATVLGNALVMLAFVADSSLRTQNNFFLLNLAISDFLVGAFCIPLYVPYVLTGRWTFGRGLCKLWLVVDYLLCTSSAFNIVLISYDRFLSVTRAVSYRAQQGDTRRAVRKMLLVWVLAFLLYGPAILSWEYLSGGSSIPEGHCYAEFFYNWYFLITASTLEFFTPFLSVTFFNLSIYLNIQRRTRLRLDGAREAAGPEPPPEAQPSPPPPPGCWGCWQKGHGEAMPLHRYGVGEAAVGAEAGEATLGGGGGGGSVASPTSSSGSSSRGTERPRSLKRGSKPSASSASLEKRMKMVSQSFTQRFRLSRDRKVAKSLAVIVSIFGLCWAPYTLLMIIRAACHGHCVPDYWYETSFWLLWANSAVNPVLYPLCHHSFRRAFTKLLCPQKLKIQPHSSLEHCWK

- Molecule: "c1ccc2c(SC3=NCCN3)c[nH]c2c1 [TINAZOLINE]"
  AC50: "> 30 µM"
- Molecule: "CC(CN1c2ccccc2Sc2ccccc21)N(C)C (stereo not drawn) [PROMETHAZINE]"
  AC50: "> 30 µM"

Shift focus to the following entry.
What AC50 value was documented for this molecule, NC[C@H]1CC[C@H](C(=O)Oc2ccc(CCC(=O)O)cc2)CC1 [CETRAXATE] ?
> 30 µM

###

# Test Target: Gamma-aminobutyric acid receptor subunit alpha-1 (Rattus norvegicus); note: assay procedure not described here
# Sequence (P62813 whole entry): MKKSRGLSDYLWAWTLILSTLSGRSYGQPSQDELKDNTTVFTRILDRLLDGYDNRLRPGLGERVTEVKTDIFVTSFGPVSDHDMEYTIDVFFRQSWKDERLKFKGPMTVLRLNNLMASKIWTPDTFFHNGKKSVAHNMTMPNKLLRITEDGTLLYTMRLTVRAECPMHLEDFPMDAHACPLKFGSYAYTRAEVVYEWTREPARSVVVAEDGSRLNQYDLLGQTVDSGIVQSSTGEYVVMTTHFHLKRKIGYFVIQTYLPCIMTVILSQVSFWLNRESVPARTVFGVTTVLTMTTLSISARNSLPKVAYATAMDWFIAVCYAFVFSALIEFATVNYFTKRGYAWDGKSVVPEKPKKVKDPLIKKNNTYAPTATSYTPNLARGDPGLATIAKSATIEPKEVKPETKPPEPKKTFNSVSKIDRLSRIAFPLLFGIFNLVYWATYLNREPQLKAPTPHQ
# Assay type: functional
Quantity: AC50

- Molecule: "COc1ccc([C@@H]2CC(=O)c3c(O)cc(O)cc3O2)cc1O"
  Test Target: "Gamma-aminobutyric acid receptor subunit alpha-1 (Rattus norvegicus)"
  Result: "> 10 µM"
- Molecule: "CCN1CCCC1CNC(=O)c1cc(S(=O)(=O)CC)ccc1OC (centres undefined) [SULTOPRIDE]"
  Test Target: "Gamma-aminobutyric acid receptor subunit alpha-1 (Rattus norvegicus)"
  Result: "> 30 µM"
- Molecule: "COc1cc(C(=O)NC2CCCNC2)cc(OC)c1OC (centres undefined) [TROXIPIDE]"
  Test Target: "Gamma-aminobutyric acid receptor subunit alpha-1 (Rattus norvegicus)"
  Result: "> 30 µM"

Shift focus to the following entry.
Form field - read-out: AC50; system: Gamma-aminobutyric acid receptor subunit alpha-1 (Rattus norvegicus); submitted item: CC1=C(C(=O)OC(C)C)C(c2cccc([N+](=O)[O-])c2)C(C(=O)OC2CN(C(c3ccccc3)c3ccccc3)C2)=C(N)N1 (centres undefined); note: assay procedure not described here
> 30 µM

###

# Test Target: Adenosine receptor A1 (Homo sapiens, UniProt P30542); note: assay procedure not described here
# Sequence (P30542 whole entry): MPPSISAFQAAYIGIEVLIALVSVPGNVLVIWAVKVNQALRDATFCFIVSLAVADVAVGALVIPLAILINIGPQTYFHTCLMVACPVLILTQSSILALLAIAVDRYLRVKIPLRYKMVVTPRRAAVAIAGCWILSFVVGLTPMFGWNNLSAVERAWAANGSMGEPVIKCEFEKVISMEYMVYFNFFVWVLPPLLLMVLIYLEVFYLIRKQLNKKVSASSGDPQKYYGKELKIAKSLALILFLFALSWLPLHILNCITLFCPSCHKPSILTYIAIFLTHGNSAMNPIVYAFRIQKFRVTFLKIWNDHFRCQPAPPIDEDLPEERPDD
Quantity: AC50

In the examples that follow, each entry is paired with its recorded AC50.
- Molecule: "C[C@@H]1C[C@H]2[C@@H]3C[C@H](F)C4=CC(=O)C=C[C@]4(C)[C@@]3(F)[C@@H](O)C[C@]2(C)[C@@]1(OC(=O)c1ccco1)C(=O)SCF [FLUTICASONE FUROATE]"
  Result: "> 10 µM"
- Molecule: "O=C(O)c1ccc(NC(=O)[C@H](Cc2ccc(O)cc2)NC(=O)c2ccccc2)cc1 [BENTIROMIDE]"
  Result: "> 10 µM"
- Molecule: "CCOC(=O)C(C)(C)Oc1ccc(Cl)cc1 [CLOFIBRATE]"
  Result: "> 30 µM"
- Molecule: "Cc1ccnc2c1NC(=O)c1cccnc1N2C1CC1"
  Result: "31.2 µM"
- Molecule: "CCOC(=O)c1ccc(C#Cc2ccc3c(c2)C(C)(C)CCS3)nc1"
  Result: "> 30 µM"

Report AC50 for every entry below.
1. O=C1OC(OC(=O)c2cccnc2Nc2cccc(C(F)(F)F)c2)c2ccccc21 (stereo unspecified) [TALNIFLUMATE]
2. Cn1c(=O)c2c(ncn2CCOC(=O)C(C)(C)Oc2ccc(Cl)cc2)n(C)c1=O [THEOFIBRATE]
3. COC(=O)[C@H]1[C@H]2C[C@@H]3c4[nH]c5cc(OC)ccc5c4CCN3C[C@H]2C[C@@H](OC(=O)c2cc(OC)c(OC)c(OC)c2)[C@@H]1OC
4. Cc1ccccc1N1C(=O)c2cc(S(N)(=O)=O)c(Cl)cc2NC1C (stereo unspecified)
5. CCC(=O)O[C@](Cc1ccccc1)(c1ccccc1)[C@H](C)CN(C)C
6. COC(=O)C1=C(C)NC(C)=C(C(=O)OCCN2CCN(C(c3ccccc3)c3ccccc3)CC2)C1c1cccc([N+](=O)[O-])c1 (stereo unspecified)
7. CO/N=C(\C(=O)N[C@@H]1C(=O)N2C(C(=O)O)=C(CSc3nc(=O)c(=O)[nH]n3C)CS[C@H]12)c1csc(N)n1
8. Fc1ccc([C@@H]2CCNC[C@H]2COc2ccc3c(c2)OCO3)cc1

["> 30 µM", "> 30 µM", "> 30 µM", "> 10 µM", "> 30 µM", "> 30 µM", "> 30 µM", "> 30 µM"]
